Ki values for Apoptosis regulator Bcl-2 (Homo sapiens, UniProt P10415), compiled from several publications.
READOUT NAME: Ki (nM)

INSERT INTO assay_data (molecule, relation_sign, measured_result) VALUES
  ('CN(C)CCCC(O)(c1ccccc1)c1cccc(OCc2ccc(-c3ccc(C(=O)O)cc3)cc2)c1 (stereo not given)', '=', 5200),
  ('Cc1ccc(-c2ccsc2S(=O)(=O)NCCNC(=O)Nc2cc(Cl)cc(Cl)c2)c(Oc2ccc(O)c(O)c2)c1', '=', 2900),
  ('COc1ccc(C(=O)Nc2ccc(C(=O)NS(=O)(=O)c3ccc(NCCSc4ccccc4)c([N+](=O)[O-])c3)cc2)cc1', '=', 800),
  ('O=C(O)c1c(CCCOc2cccc3ccccc23)c2ccccc2n1Cc1ccccc1', '>', 15000),
  ('Cc1cc(Oc2ccc(Cn3nc4ccc(Cl)cc4c3C(=O)NS(=O)(=O)c3ccc(NCc4ccco4)c([N+](=O)[O-])c3)cc2)cc(C)c1Cl', '=', 570),
  ('O=C(NCCNS(=O)(=O)c1ccc(-c2ccccc2Oc2ccc(O)c(O)c2)s1)Nc1cc(C(F)(F)F)cc(C(F)(F)F)c1', '=', 3900),
  ('O=C(O)c1ccc([N+](=O)[O-])c(COc2ccc(/C=C3\SC(=S)N(c4ccccc4)C3=O)cc2)c1', '=', 9000),
  ('CC(=O)N[C@H](C(=O)Nc1ccc(C(=O)NS(=O)(=O)c2ccc(NCCSc3ccccc3)c([N+](=O)[O-])c2)cc1)C(C)C', '=', 9490),
  ('COc1ccc2c(c1)c(CC(=O)N[C@@H](Cc1ccccc1)C(=O)NS(=O)(=O)c1ccc([N+](=O)[O-])cc1)c(C)n2-c1ccc(-c2ccccc2)cc1', '=', 910),
  ('COC(=O)CCCN/C=C1\C(=O)C(O)=C(C(C)C)c2cc(C)c(-c3c(C)cc4c(c3O)/C(=C/NCCCC(=O)OC)C(=O)C(O)=C4C(C)C)c(O)c21 (stereo in doubt; (-)-16)', '=', 131),
  ('O=C(NCc1ccc(Oc2ccccc2)cc1)[C@H]1[C@H](CO)[C@H]2Cn3c(cccc3=O)[C@H]2N1CC1CCCCC1', '=', 8400),
  ('CC(=O)N[C@@H](Cc1c[nH]c2ccccc12)C(=O)Nc1ccc(C(=O)NS(=O)(=O)c2ccc(NCCSc3ccccc3)c([N+](=O)[O-])c2)cc1', '=', 830),
  ('CN(C)CCCNc1ncnc2c1cnn2-c1ccc(OCCCc2sc(N3CCc4cccc(C(=O)Nc5nc6ccccc6s5)c4C3)nc2C(=O)O)cc1', '=', 240),
  ('COc1ccc2c(c1)c(CC(=O)NS(=O)(=O)c1ccc(NC3CCCCC3)c([N+](=O)[O-])c1)c(C)n2-c1ccc(-c2ccccc2)cc1', '>', 10000),
  ('Cc1cc(OCCCc2c3n(c4c(-c5c(C)nn(C)c5C)c(Cl)ccc24)CCCN(c2cc(C(=O)O)cc4c2OCO4)C3=O)cc(C)c1Cl', '=', 550);
